# Test system: CCRF-CEM leukemia
# experimental-details: NCI tumour cell line growth inhibition, 48 h
reported-endpoint: TGI

Q: State recorded TGI with CCRF-CEM leukemia, entry COC(=O)c1c2c(cc3c1CC1(Cc4ccccc4C1=O)C3)CCC2 (centres undefined) , no comment.
Result: > 100 µM

// batch mode: one TGI value per listed entry
1. Cc1ccc(C2CC(=O)CC(c3ccc(C)cc3)C23C(=O)NC(=O)NC3=O)cc1 (centres undefined)
2. O=C(Cn1c(=O)oc2ccc(C(=O)c3ccc(F)cc3)cc21)c1ccc([N+](=O)[O-])cc1
3. CN(C)CC(/C(Cc1ccccc1)=N\NC(=O)C[n+]1ccccc1)c1ccccc1 (centres undefined)
4. C=C(C)[C@@H]1CC[C@]2(C(=O)O)CC[C@]3(C)[C@H](CC[C@@H]4[C@@]5(C)CC(=O)C(C)(C)[C@@H]5CC[C@]43C)[C@@H]12
5. COc1c2c(c3c(c1C1OC(C)[C@@H](C)O1)CC(C)(C)O3)C(=O)c1ccccc1C2=O (some centres undefined)
6. O=C(/C=C/c1ccc(B(O)O)cc1)/C=C/c1ccc(B(O)O)cc1
7. O=C1c2ccccc2C2CNC1(O)c1ccccc12 (centres undefined)

Result:
1: > 100 µM; 2: > 100 µM; 3: > 100 µM; 4: 2.86 µM; 5: 53.2 µM; 6: 9.58 µM; 7: > 100 µM

// batch mode: one TGI value per listed entry
1. FC(F)(F)C1(Cl)C(c2ccccc2)=C1c1ccccc1
2. COc1ccc2c(c1)C(=O)c1c-2n(CCCN)c(=O)c2ccccc12
3. O=C(O)CCCl
4. Cc1c2cc[nH]c(C(F)(F)F)c2cc2c1nc1ccccc12
5. Nc1nc(Cl)cc(NCC2(O)CC(CO)C2)n1 (centres undefined)

Result:
12.1 µM
< 0.0356 µM
> 5000 µM
> 125 µM
> 100 µM

// batch mode: one TGI value per listed entry
1. Nc1ncnc2c1ncn2C1OC(COP(=O)(O)CP(=O)(O)O)C(O)C1O (centres undefined)
2. COc1c2cc([N+](=O)[O-])cc1CNC(=O)CN1CCOCCOCCN(CCOCCOCC1)CC(=O)NC2
3. CN1CCc2cc3c(cc2C1O)OCO3 (centres undefined)

Result:
1. > 100 µM
2. > 100 µM
3. > 100 µM

// batch mode: one TGI value per listed entry
1. Cc1ccc(C)n1-c1ccccc1C1SCCCS1
2. CO[C@H](C(=O)[C@@H](O)[C@@H](C)O)[C@@H]1Cc2cc3cc(O[C@H]4C[C@@H](O[C@H]5C[C@@H](O)[C@H](O)C(C)O5)[C@H](O)C(C)O4)c(C)c(O)c3c(O)c2C(=O)[C@H]1O[C@H]1C[C@@H](O[C@H]2C[C@@H](O[C@H]3C[C@@H](OC)[C@H](O)C(C)O3)[C@@H](O)C(C)O2)C(O)(O)C(C)O1 (some centres undefined)
3. C=CCC1(O)c2ccccc2C(=O)c2c(O)ccc(O)c21 (centres undefined)

Result:
1. > 100 µM
2. > 25 µM
3. 56.7 µM

Sourced from PubChem BioAssay (NCI)
